ASSAY_NOTES: chemical genetic growth profiling, strain panel (AID 1159580);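 also: tested at 20 µM; growth read once vehicle control cultures reached saturation at 30 °C; 1 = growth at the plate median or of vehicle wells; lower values mean less growth of the strain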
STATED_CONDITIONS: S. cerevisiae deletion strains, growth OD, locus YOR270C, strain vph1, hits give low values
In all, about 5,500 compounds went through this assay and about 2,000 (36%) were called active. About 18% were inconclusive and are not listed. The list shows a part of the results.
hey, just use Yes if measured normalized growth is less than 1, otherwise No

- MOLECULE: "O=c1c(O)c(-c2ccc(O)c(O)c2)oc2c(O[C@@H]3O[C@H](CO)[C@H](O)[C@@H](O)[C@H]3O)c(O)cc(O)c12"
  ANSWER_LABEL: "No"
- MOLECULE: "CCCCCCCCCCCC1=C(O)C(=O)C=C(O)C1=O"
  ANSWER_LABEL: "Yes"
- MOLECULE: "O=c1c(O)c(-c2ccc(O)c(O)c2)oc2cc(O)cc(O)c12"
  ANSWER_LABEL: "Yes"
- MOLECULE: "CCC1OC(=O)[C@H](C)C(=O)[C@H](C)[C@@H](OC2O[C@H](C)C[C@H](N(C)C)[C@H]2O)[C@](C)(OC)C2(CCCn3cnc(-c4cccnc4)c3)C[C@@H](C)C(=O)[C@H](C)[C@H]3N(C2)C(=O)O[C@]13C (stereo partly specified)"
  ANSWER_LABEL: "Yes"

---

ASSAY_NOTES: chemical genetic growth profiling, strain panel (AID 1159580);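 also: tested at 20 µM; growth read once vehicle control cultures reached saturation at 30 °C; 1 = growth at the plate median or of vehicle wells; lower values mean less growth of the strain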
STATED_CONDITIONS: S. cerevisiae deletion strains, growth OD, locus YLR330W, strain CHS5, hits give low values
Hit rate of the full screen: of about 5,500 compounds, about 2,000 (36%) were called active. Another 18% or so got no clear call; they are omitted. The list shows a part of the results.

- COMPOUND: "COC(=O)c1c(C)cc(OC)cc1O"
  normalized growth: 0.993
- COMPOUND: "NC(=NCCC[C@H](N)C(=O)O)N[N+](=O)[O-]"
  normalized growth: 1.01
- COMPOUND: "CCc1cccc(CC)c1N(COC)C(=O)CCl"
  normalized growth: 1.01
- COMPOUND: "COc1cc(OC)c2ccc(=O)oc2c1"
  normalized growth: 1
- COMPOUND: "CCN(Cc1ccncc1)C(=O)C(CO)c1ccccc1 (centres undefined)"
  normalized growth: 0.991
- COMPOUND: "CCCCCCC(C)OC(=O)COc1ccc(Cl)cc1Cl (centres undefined)"
  normalized growth: 0.992
- COMPOUND: "C[C@]12CCC3c4ccc(O)cc4CCC3C1CC[C@@H]2O (some centres undefined)"
  normalized growth: 1
- COMPOUND: "CC(C)(O)[C@@H]1Cc2cc3ccc(=O)oc3cc2O1"
  normalized growth: 1.01
- COMPOUND: "C[N+](C)(C)CC(O)CC(=O)O (centres undefined)"
  normalized growth: 1.01

---

ASSAY_NOTES: chemical genetic growth profiling, strain panel (AID 1159580);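 also: tested at 20 µM; growth read once vehicle control cultures reached saturation at 30 °C; 1 = growth at the plate median or of vehicle wells; lower values mean less growth of the strain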
STATED_CONDITIONS: S. cerevisiae deletion strains, growth OD, locus YGR078C, strain PAC10, hits give low values
The whole screen tested about 5,500 compounds, of which about 2,000 (36%) were called active. Not shown: some 18% with an inconclusive outcome. This is one part of the list.
API: label(entry) gives Y if the entry's normalized growth is strictly smaller than 1; on equality or larger values it gives N.

- COMPOUND: "COc1ccccc1/C=C\\C(=O)O"
  ANSWER_LABEL: "N"
- COMPOUND: "OC1(C(F)(F)F)CC(c2ccc3ccccc3c2)=NN1 (stereo unspecified)"
  ANSWER_LABEL: "Y"
- COMPOUND: "COc1cccc2c(C)cc(=O)[nH]c12"
  ANSWER_LABEL: "Y"
